# Tested on: KM12
# assay-notes: NCI tumour cell line growth inhibition, 48 h
Calls of active or inactive are those of the source. No stated cut-off is given here; in the data, active = GI50 up to about 1.1 µM and inactive = higher.
parameter-measured: GI50

Q. Identify measured GI50 associated with CN(C)CCC1(C2=CCCC2)CC/C(=C\c2ccc3c(c2)OCO3)C1=O (stereo not given)
A. 15.8 µM (inactive)

Q. Note down GI50 recorded for "COc1ccc(C(=O)N2CCN(c3ccc4c(c3)OCC(=O)N4)CC2)cc1"
A. > 100 µM (inactive)

Q. Note GI50 for the compound shown: "O=C(O)Cc1ccc(Oc2nc3ccccc3nc2C(=O)O)cc1"
A. > 100 µM (inactive)

Q. Complete the entry with GI50 for "[O-][s+]1c2c(Cc3ccccc3)c(Cc3ccccc3)c1CCc1cccc(c1)CC2"
A. 12.2 µM (inactive)

Q. Consider the compound N#CC(C(=O)c1ccccc1F)c1nc2cc(C(F)(F)F)ccc2s1 (stereo not given) . State its measured GI50.
A. 32.5 µM (inactive)

Q. Supply reported GI50 belonging to this compound: CN1C(=O)C(O)CC1c1ccc(C(F)(F)F)cc1 (stereo not given)
A. > 100 µM (inactive)

Q. Give the reported GI50 for this compound. "C/C(=C1/N=C(c2ccccc2)OC1=O)c1ccc(C)cc1"
A. > 100 µM (inactive)

Q. Give recorded GI50. COC(=O)C1(O)c2ccccc2N=C2C(=O)c3ccccc3N21 (stereo not given) [METHYLISATOID]
A. > 100 µM (inactive)

Q. For the compound "O=C(CO)CC(=O)C(=O)Nc1nc([N+](=O)[O-])cs1" , report GI50.
A. > 100 µM (inactive)

Q. Note GI50 for the compound shown: CC1CC[C@]2(C(=O)O)CCC3(C)C(=CC(=O)C4[C@@]5(C)CCC(=O)C(C)(C)C5CC[C@]43C)[C@@H]2[C@H]1C (stereo not given in full)
A. 18.7 µM (inactive)
